# protocol.notes: Phase 1 Stage 1 clinical pharmacokinetics of SC ZA co-administered with rHuPH20
# Format: in vivo, human
# condition.label: human, serum, subcutaneous, 1 mg, ZA 1 mg SC, 100 mL, 24000 Units rHuPH20; individual subjects; read-out: MAT (mean absorption time = SC MRT − IV MRT)
experimental.readout: MAT (h)
Kindly answer with a numeric value in h, unit omitted.

INPUT: Any idea what its MAT is? The compound is `O=P(O)(O)C(O)(Cn1ccnc1)P(=O)(O)O`
OUTPUT: 1.68

###

# protocol.notes: Phase 1 Stage 1 clinical pharmacokinetics of SC ZA co-administered with rHuPH20
# Type: in vivo, human
# condition.label: human, serum, sc, serum; ZA 5 mg SC infusion + 24000 Units rHuPH20; 12 h post infusion; n=3; read-out: Median Conc.
experimental.readout: concentration at 12 h

INPUT: Any idea what its concentration at 12 h is? The compound is `O=P(O)(O)C(O)(Cn1ccnc1)P(=O)(O)O`
OUTPUT: 4.61 ng/mL
